system: MS2 coat protein; assay: apparent KD of MS2 coat protein; designed switch direction (-1 OFF switch, 1 ON switch): 1; higher = weaker reporter binding; conditions: input ligand: microRNA oligo, concentration not stated
Let's look at some sequences and their measured apparent KD of MS2 coat protein.
Report field: quantity (unit follows the number).

Examples with their reported apparent KD of MS2 coat protein follow.
• GCGUUUAACGUAGGAUAUCGAGCUACAUGAGGAUCACCCAUGUCUUUGUAAAGUUUUUUUAAUUACGAGAAGGACGUUUUGCAU [JR_SSNG2_Sub072] (Eterna round: R96, puzzle: Same State NG 2) = 26.7 nM
• GACUGCGUUAUGAAGGAUAUCCGCGUCUGGACAUGAGGAUCACCCAUGUAUACUUGGAUCGUGCAGGAGAAGGUCAAGGGUGAUU [JR_SS002_Sub1210] (Eterna round: R96, puzzle: Same State 2) = 163 nM
• AUGCCAAAUCGAGGAUAUGGAGCCUUAUUGGCUCCAGAAGGUGAGACAUGAGGAUCACCCAUGUGGCAGUGGUCUAAUGACCAC [Fiskers NG1ss - 32] (Eterna round: R96, puzzle: Same State NG 1) = 270 nM

Query string: Entry GGAAAGAGGUUAGGAUAUGCAUGGCUGGGACAUGAGGAUCACCCAUGUAAUAGAAGAAAUCUACAGUAGAAGGGACAAGGAAGG [AK SSNG2-V2-8] (Eterna round: R96, puzzle: Same State NG 2) : reported apparent KD of MS2 coat protein = ?
Result string: 262 nM

Query string: # input sequence: CCGGUAAAUGGAGGAUAUGGAGCCUUAUUGGCUCCAGAAGGCUAACAUGAGGAUCACCCAUGUAUACCGGCGGUCAAUAGACCG [Eli NG1ss - 64] (Eterna round: R96, puzzle: Same State NG 1) ; wanted: its apparent KD of MS2 coat protein
Result string: 16.3 nM

Query string: So what does the record say about apparent KD of MS2 coat protein for GGUAGGUUACUACCAACACAUGAGGAUCACCCAUGUUAGUGGGAGGAUAUGGUACCUAUUUGGUACCAGAAGGCCUUGUUAAUU [Fiskers NG3ss - 14] (Eterna round: R96, puzzle: Same State NG 3) ?
Result string: 62.8 nM

Query string: Reported apparent KD of MS2 coat protein for UGUUGUAUUACAGGAUAUCUAGUAUUUUUAAUUAGAGAAGGGUAUUCACAUGAGGAUCACCCAUGUAUAUACGAGGAAGUUGUG [JMF's solution 48] (Eterna round: R96, puzzle: Same State NG 1) : what is it?
Result string: 34 nM

Attribution: the supplement of paper PMC9170038
